These measurements were taken from paper PMC5540273.

molecules and their reported %Inh
System: NEK11
Details: concentration: 1 μM, replicates: in singlicate; n = 1;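 note: KINOMEscan kinase panel screen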

| MOLECULE | UOM | %Inh |
| --- | --- | --- |
| CN1C(=O)C(Nc2cc(Cl)c(O)c(Cl)c2)=C(c2ccc(Cl)cc2)C1=O [SB-404321] | % | 0 |
| COc1cc2nccc(Nc3cccc(Oc4ccccc4)c3)c2cc1OC.Cl [GW284543] | % | 19 |
| COC(=O)c1c(-c2ccccc2)c2cc(C)ccc2c(=O)n1Cc1ccccc1 | % | 0 |
| COc1cccc(-n2cnc3c(N)ncnc32)c1 [SKF-97416] | % | 35 |
| COc1ccc(CNC(=O)NC2CCN(c3ccnc(Nc4ccc(F)cc4)n3)C2)cc1 (stereo not drawn) [GSK1379706] | % | 43 |
| CCC(=O)c1c(-c2ccccc2)c2cc(Cl)ccc2c(=O)n1Cc1ccc(C(=O)O)cc1 | % | 0 |

----------
Test system: DDR2
Conditions: concentration: 1 μM, replicates: in singlicate; n = 1
molecules and their reported %Inh
PARAMETER MEASURED: %Inh (%)

| MOLECULE | PARAMETER MEASURED | OBSERVED VALUE |
| --- | --- | --- |
| Cc1nnc(-c2ccc(C)c(-c3ccc(C(=O)O)cc3)c2)o1 [GW608005] | %Inh | 1 |
| CCc1ccc(-c2ccc3c(c2)-c2nn(C)cc2S(=O)(=O)N3C)cc1 | %Inh | 41 |
| Cc1cccc(-c2cc(-c3c[nH]nc3-c3ccccn3)ccn2)c1 [GW679395] | %Inh | 8 |

----------
Test system: HIPK4
Conditions: concentration: 1 μM, replicates: in singlicate; n = 1

| COMPOUND | %Inh (%) |
| --- | --- |
| Cc1cc(Nc2nc(-c3cccc(C)n3)nc3ccccc23)ccn1 | 0 |
| O=C(NCc1cccs1)c1cc(C(=O)c2c(Cl)cccc2Cl)c[nH]1 | 0 |
| CCS(=O)c1ccc(-c2coc3ccc(-c4nnc(C)o4)cc23)cc1 (stereo not drawn) | 0 |

----------
compounds and their reported %Inh
Tested on: CDK4-cyclinD3
Conditions: concentration: 1 μM, replicates: in singlicate; n = 1

| COMPOUND | %Inh / % |
| --- | --- |
| O=C(NCCNc1ccnc(Nc2ccc(F)cc2)n1)Nc1ccc2c(c1)OCO2 | 0 |
| COc1cc2ncn(-c3cc(OCCCc4ccccc4)c(C(N)=O)s3)c2cc1OC | 0 |
| O=C1NC(=O)C(c2ccccc2)=C1Nc1cccc(O)c1 | 0 |
| COc1cc(Nc2nccc(N3CCC(NC(=O)C4COc5ccccc5O4)C3)n2)cc(OC)c1OC (centres unmarked) | 0 |
| Cn1c(=O)c(F)c(Nc2ccc(I)cc2F)c2c(=O)n(OC[C@H](O)CO)cnc21 | 0 |
| CCC(=O)c1c(-c2ccccc2)c2cc(Cl)ccc2c(=O)n1Cc1cc(S(C)(=O)=O)n(CC(N)=O)n1 | 0 |
| Cc1ccccc1COc1cc(-n2cnc3cc(Cl)ccc32)sc1C(N)=O | 3 |
| Cl.c1ccc(Cn2cnc3cc(Nc4ncnc5ccccc45)ccc32)cc1 | 1 |
| Cl.NS(=O)(=O)c1cccc(Nc2cc(-c3ccc(F)cc3)n[nH]2)c1 | 0 |
| Cc1ccc(Oc2ccc(Nc3ncnc4cc[nH]c34)cc2C)cn1 | 0 |
| COc1ccc(Nc2nccc(N3CCC(NS(=O)(=O)c4ccc(NC(C)=O)cc4)C3)n2)cc1 (centres unmarked) | 0 |
| CN1C(=O)C(Nc2ccccc2)=C(c2ccccc2)C1=O | 0 |
| Nc1nc(N)c2nc(-c3ccccc3)[nH]c2n1 | 0 |
| Cc1nc(N(C)[C@H]2CN(C(=O)CC#N)CC[C@H]2C)c2cc[nH]c2n1 | 23 |
| Cc1nn2c(=O)cc(N3CCOCC3)nc2n1Cc1cccc(Cl)c1Cl | 0 |
| CCC(=O)c1c(-c2ccccc2)c2cc(Cl)ccc2c(=O)n1Cc1cc(S(C)(=O)=O)n(CC(F)F)n1 | 0 |
| Nc1n[nH]c2ncc(-c3ccccc3)cc12 | 5 |
| Cc1cc(Nc2nc(-c3cccc(C)n3)nc3ccccc23)ccn1 | 0 |
| Cc1nnc(-c2ccc3ncn(-c4ccc(S(C)=O)cc4)c3c2)o1 (centres unmarked) | 0 |
| O=c1cc(N2CCOCC2)nc2n(Cc3ccc(F)c(Cl)c3)ccn12 | 20 |
| Nc1ncnc2c1ncn2-c1cccc(F)c1 | 13 |
| COc1cccc(C2=C(N(C)c3ccccc3)C(=O)NC2=O)c1 | 8 |
| COC(=O)c1c(-c2ccccc2)c2cc(C)ccc2c(=O)n1Cc1ccccc1 | 0 |
